Record form. Attribute: pKd. Fill in for each entry.
Target: T1, PTPN4, P29074
T1 sequence (P29074 512-599, limits assumed, looked up): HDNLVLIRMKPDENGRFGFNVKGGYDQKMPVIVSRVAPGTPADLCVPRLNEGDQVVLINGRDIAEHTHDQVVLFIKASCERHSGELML
Experiment: holdup assay
Parameters: key: below the threshold = too weak to quantify, mostly under pKd 3.1 to 4
Conditions: plain residues with an end cap or a label only (N-terminal biotin on a linker: ttds)
Give bare numbers.

                          binder  measure_name  test_value
0  RLQRRRETQV [HPV18-E6, P06463]           pKd        4.62
1  SKPTRRETEV [HPV35-E6, P27228]           pKd        4.03
2    SSLQSLETSV [ATP2B4, P23634]           pKd        4.88

Could you report pKd for every entry in the following list?
1. SGSRPSATVV [HPV73-E6, Q82005]
2. RHTTSTETAV [HPV30-E6, P36809]
3. RLPKIKETTV [FRMPD4, Q14CM0]

stdout:
[4.65, 4.72, 5.14]
